Recorded values, source the supplement of paper PMC10567573.

B1: TRIM55 (parent)
chain: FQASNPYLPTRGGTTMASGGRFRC

# Variants of: B1
# ASSAY_NOTES: protein stability index of a GFP-peptide fusion (GPS, HEK-293T) (PSI 1-6); higher = more stable;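 note: lentivirally expressed fusions sorted by FACS into six bins by GFP to DsRed ratio, PSI derived from sequencing read proportions per bin multiplied by bin number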
# CONDITIONS: c terminus: a fixed tail appended
protein stability index values, listed per item
Respond using a number only.

Please review the entries below; each comes with its answer.
SEQUENCE_INPUT: FQASNPYLPTRGGNTMASGGRFRC [T14N]
EXPERIMENTAL_VALUE: 1.73
//
SEQUENCE_INPUT: FQASNPYLPTFGGTTMASGGRFRC [R11F]
EXPERIMENTAL_VALUE: 2.01
//
SEQUENCE_INPUT: FQASNPYLPTRGGTTMASGMRFRC [G20M]
EXPERIMENTAL_VALUE: 3.49
//
SEQUENCE_INPUT: FQASNFYLPTRGGTTMASGGRFRC [P6F]
EXPERIMENTAL_VALUE: 2.12
//
SEQUENCE_INPUT: FQADNPYLPTRGGTTMASGGRFRC [S4D]
EXPERIMENTAL_VALUE: 1.24
//
SEQUENCE_INPUT: FQAGNPYLPTRGGTTMASGGRFRC [S4G]
EXPERIMENTAL_VALUE: 1.1
//
SEQUENCE_INPUT: FQASNPCLPTRGGTTMASGGRFRC [Y7C]
EXPERIMENTAL_VALUE: 3.15
//
SEQUENCE_INPUT: EQASNPYLPTRGGTTMASGGRFRC [F1E]
EXPERIMENTAL_VALUE: 3.59

Short answer for FQASNPYNPTRGGTTMASGGRFRC [L8N] : protein stability index was 2

Short answer for FQISNPYLPTRGGTTMASGGRFRC [A3I] : protein stability index was 1.76

Short answer for FQASNPYLPTRGITTMASGGRFRC [G13I] : protein stability index was 1.99

Short answer for FQASNPVLPTRGGTTMASGGRFRC [Y7V] : protein stability index was 3.13
